B1: TPR t1 (parent)
chain: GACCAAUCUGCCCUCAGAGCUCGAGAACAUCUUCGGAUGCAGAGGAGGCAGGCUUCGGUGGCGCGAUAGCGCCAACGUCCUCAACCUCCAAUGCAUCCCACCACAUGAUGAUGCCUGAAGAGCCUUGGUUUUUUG

# Variants of: B1
# Assay notes: polymerase ribozyme fitness, log enrichment relative to wild type (log ratio); higher = more active; in vitro selection for triplet polymerase activity
We use -4 as the dividing line for polymerase ribozyme fitness (log ratio): on or above the line is class 1, below is class 0.

mutant_designation="A18U A26C C62U G120C U126G" label_class="class 0"

We now examine a further variant.
Could you tell me if the measured polymerase ribozyme fitness (log ratio) of C34A U55C reaches -4 or more? class 1
